assay target: T1, Full length recombinant HBcAg (rHBcAg) encompassing residues 1-183 (hepatitis B virus, UniProt P03146 1-183)
T1 construct: range 1-183; also called hepatitis B virus core antigen
T1 sequence (P03146 whole entry, the tested form may be a part): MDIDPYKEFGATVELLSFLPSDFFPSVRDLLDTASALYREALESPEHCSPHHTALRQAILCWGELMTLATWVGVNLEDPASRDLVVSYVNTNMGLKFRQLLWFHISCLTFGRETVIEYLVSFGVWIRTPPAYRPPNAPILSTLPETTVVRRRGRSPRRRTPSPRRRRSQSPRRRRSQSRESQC
assay overview: EIA, support-bound peptide, HBcAg 2 ug/well
recorded endpoint: OD at 405 nm (OD)
Give bare numbers, in OD.

Below: 3 binders and their reported OD at 405 nm.
binder | value unit | result number
PVEEEDTATYYCQHSWEIPY (also called Peptide # 20) [PVEEEDTATYYCQHSWEIPY (SEQ. ID. No. 23)] | OD | 0.625
ISCRASQSVSTSSYSYMHWY [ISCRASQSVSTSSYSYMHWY (SEQ. ID. No. 17)] | OD | 2.48
DYYRRYFDLWGQGTTVTVS (also called Peptide # 11) [DYYRRYFDLWGQGTTVTVS (SEQ. ID. No. 14)] | OD | 0.356

I would be grateful if you could provide OD at 405 nm for each of the following entries.
1. VKPGASVKLSCKASGYIFTS (also called Peptide # 2; Pept. #2) [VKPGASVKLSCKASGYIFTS (SEQ. ID. No. 5)]
2. VDKSSSTAYMELTRLTSEDS (also called Peptide # 8) [VDKSSSTAYMELTRLTSEDS (SEQ. ID. No. 11)]
3. YNMNWVKQSHGKSLEWIGNI (also called Peptide # 27) [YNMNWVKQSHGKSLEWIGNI (SEQ. ID. No. 30)]
4. EQGLEWIGWIFPGEGSTEYN (also called Peptide # 5) [EQGLEWIGWIFPGEGSTEYN (SEQ. ID. No. 8)]
5. CKASGYSFTGYNMNWVKQSH (also called Peptide # 26) [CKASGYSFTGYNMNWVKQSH (SEQ. ID. No. 29)]
6. EKFKGRATLSVDKSSSTAYM (also called Peptide # 7) [EKFKGRATLSVDKSSSTAYM (SEQ. ID. No. 10)]
7. TSSYSYMHWYQQKPGQPPKL [TSSYSYMHWYQQKPGQPPKL (SEQ. ID. No. 18)]
8. QQKPGQPPKLLIKYASNLES [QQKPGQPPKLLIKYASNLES (SEQ. ID. No. 19)]

3.69
0.363
0.157
0.706
2.29
0.883
1.44
0.299

I would be grateful if you could provide OD at 405 nm for each of the following entries.
1. GVPARFSGSGSGTDFTLNIH [GVPARFSGSGSGTDFTLNIH (SEQ. ID. No. 21)]
2. GKSLEWIGNINPYYGSTSYN (also called Peptide # 28) [GKSLEWIGNINPYYGSTSYN (SEQ. ID. No. 31)]
3. TFGGGTKLEIKRADAAPAV (also called Peptide # 22) [TFGGGTKLEIKRADAAPAV (SEQ. ID. No. 25)]

1. 0.409
2. 0.289
3. 0.273

Using known records, supply OD at 405 nm for VKPGASVKISCKASGYSFTG (also called Peptide # 25) [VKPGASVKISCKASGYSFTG (SEQ. ID. No. 28)]
3.13

meta.source: patent US20020058247A1
